Origin of values: ChEMBL document CHEMBL1201862

- Tested on: RPMI-8226
- experimentSummary: NCI tumour cell line growth inhibition, 48 h
The source made the active and inactive calls. Cut-off read from the data, not from the text of the source: active = GI50 up to about 1.1 µM and inactive = higher.
readoutType: GI50

Completed entries (count: 5):
CCOP(=O)(OCC)C(Nc1cccc(F)c1)c1ccccc1 (stereo unspecified)
29.7 µM (inactive)
CC(C)(CO)CNc1cc(=O)[nH]c(N)n1
> 100 µM (inactive)
CCC(=O)C(C(C)/C=C/CCSc1ccccc1)C(O)CCCCCC(=O)OC (stereo unspecified)
> 100 µM (inactive)
C=C(C)C1CC/C(C)=C/CCC2(C)OC2CC/C(CO)=C\C1O (stereo unspecified)
42.4 µM (inactive)
Nc1cccc(/C=C/CN2CCN(CCOC(c3ccccc3)c3ccccc3)CC2)c1
3 µM (inactive)

Request: Reported GI50 for `O=C1C(Cl)=CC2(C=C1Cl)CCNC1=C2C(=O)c2nc[nH]c2C1=O` : what is it?
Result: 30.5 µM (inactive)

Request: Reported GI50 for `Cc1cc(OCc2nnc3n2N=C(c2cc(F)c(Cl)cc2Cl)/C(=C/c2ccc(Cl)cc2)S3)ccc1Cl` : what is it?
Result: 11.7 µM (inactive)

----------
- System: OVCAR-8
- experimentSummary: NCI tumour cell line growth inhibition, 48 h
Active and inactive are the calls of the source. No stated cut-off is given here; in the data, active = GI50 up to about 1.1 µM and inactive = higher.
I would appreciate it if you answered using one of these outcomes: yes (1) (active), no (0) (inactive)

Consider the worked cases shown below.
Cc1cn(C2CC(ON3C(=O)c4ccccc4C3=O)C(CO)O2)c(=O)[nH]c1=O (stereo not drawn)
no (0)
Clc1ccc(C2=CC(c3ccccc3)N3C(=N[C@H]4CCCC[C@@H]43)N2)cc1 (stereo partly drawn)
no (0)
CSc1ccc(C2OC(=O)c3ccccc32)c2ccccc12 (stereo not drawn)
no (0)
O=c1c(C(c2ccc(C(c3c(O)oc4cc(O)ccc4c3=O)c3c(O)oc4cc(O)ccc4c3=O)cc2)c2c(O)oc3cc(O)ccc3c2=O)c(O)oc2cc(O)ccc12
no (0)
CCC1CN2CCc3c([nH]c4ccccc34)[C@@](C(=O)OC)(c3cc4c(cc3OC)N(C)C3C(O)(C(=O)OC)C(C(=O)OC)C5(CC)C=CCN6CCC43C65)C[C@@H](C2)[C@@H]1C(C)(C)C (stereo partly drawn)
yes (1)

Request: What did this assay record as the result for `O=C(c1no[n+]([O-])c1C(=O)c1csc2ccccc12)c1csc2ccccc12` ?
Result: no (0)

Request: What did this assay record as the result for `COC(=O)CCCC(=O)NC1=C(Nc2ccc(OC)cc2)C(=O)c2ccccc2C1=O` ?
Result: no (0)

Request: What did this assay record as the result for `C=CC(=O)N1C/C(=C\c2ccccc2)C(=O)/C(=C/c2ccccc2)C1` ?
Result: no (0)

----------
- Tested on: OVCAR-8
- experimentSummary: NCI tumour cell line growth inhibition, 48 h
Calls of active or inactive are those of the source. Cut-off read from the data, not from the text of the source: active = GI50 up to about 1.1 µM and inactive = higher.
readoutType: GI50

Request: Reported GI50 for `Cc1n[nH]c(=O)n1C1CCCC1` : what is it?
Result: > 100 µM (inactive)

Request: Reported GI50 for Cc1cc(-c2cccc3ccccc23)c(C#N)c(=S)n1C1OC(CO)C(O)C(O)C1O (stereo unspecified) : what is it?
Result: > 100 µM (inactive)

----------
- Test system: MOLT-4
- experimentSummary: NCI tumour cell line growth inhibition, 48 h
Calls of active or inactive are those of the source. Rule as the data show it: active = GI50 up to about 1.1 µM and inactive = higher.
readoutType: GI50

Completed entries (count: 4):
Clc1ccc(-c2c(C3=NCCCN3)nnn2-c2ccc(Cl)cc2)cc1
27.4 µM (inactive)
Nc1ccccc1CC(O)C(=O)O (stereo unspecified)
> 100 µM (inactive)
CCOC(=O)c1c(N2CCOCC2)ncn(-c2cccc(Cl)c2)c1=O
> 100 µM (inactive)
CC(=O)N1C(C(=O)NNc2ccccc2)CSC1c1ccccc1 (stereo unspecified)
4 µM (inactive)

Request: Reported GI50 for `CC1=NN(c2nc(N)nc(CBr)n2)C(C)(C)C1` : what is it?
Result: 1.61 µM (inactive)

Request: Reported GI50 for `NNC(=O)/C(NC(=O)c1ccccc1)=C(\N)c1ccc(Cl)cc1` : what is it?
Result: 28.3 µM (inactive)
